Hello, the source for this data is patent US20260116991A1, in case you need it.

Molecular target: T1, monkey GPC3-His protein (monkey)
T1 construct: Bought recombinant protein; also called monkey GPC3 protein
Assay: ELISA, monkey GPC3-His coated;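 note: Plate-coated antigen at 1 µg/mL, antibody binding 2 h at 37 °C, detected with HRP-labeled secondary antibody and TMB, absorbance at 450 nm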
In this section, each of the binders is paired with its reported OD450 at 0.001 nM.
The figure you give is taken to be in OD450; do not add the unit.

Inquiry: Respond only with OD450 at 0.001 nM recorded for F4.13.7 (antibody, human IgG1, kappa, V domains shown, Human-murine chimeric antibody) VH: QVQLQQPGAELVKPGASVKLSCKASGYTFTNNWVHWVKQRPGQGLEWTGMIHPDSGSTIYNEKFQSKATLTVDKSSSTAYMQLSSLTSEDSAVYYCARGYYDSSSYYAMDYWGQGTSVTVSS VL: NIQMTQTTSSLSASLGDRVTISCSASQGIFNYLNWYQQKPDGTVKLLIYYTSSLHSGVPSRFSGSGSGTDYSLTISNLEPEDIATYYCQQYSKLPWTFGGGTKLEIKR
Reply text: 0.08

Inquiry: Respond only with OD450 at 0.001 nM recorded for F1.9.19 (antibody, human IgG1, kappa, V domains shown, Human-murine chimeric antibody) VH: DVQLQESGPGLVKPSQSLSLTCSVTGYSITSGYYWNWIRQFPGNRLEWMAYISYDGINNYNPSLKNRISIARDTSTNQFFLKLNSVTSEDTATYYCATTTEVALFDHWGQGTTLTVSS VL: DVLLTQTPLSLPVSLGDQASISCRSSQNIVHGNGNTYLEWFLQKPGQSPKLLIYKVSNRFSGVPDRFSGSGSGTDFTLKISRVEAEDLGLYYCFQASHVPWTFGGGTKLEIKR
Reply text: 0.25

Next, consider the following binder.
Inquiry: Respond only with OD450 at 0.001 nM recorded for F2.39.2 (antibody, human IgG1, kappa, V domains shown, Human-murine chimeric antibody) VH: QVQLQQSGAELVRPGASVKVSCKASGYTFTDYEMHWMKQTPVHGLEWIGANEPETGRSAYDQKFKGKATLTADKSSSTAYMELRSLTSEDSAVYYCTRFYSFAYWGQGTLVTVSA VL: DVVMTQTPLSLPVSLGDQASISCRSSQGLVHNNGNTYLHWYLQKPGQSPKLLIYKVSNRFSGVPDRFSGSGSGTDFTLKISRVEAEDLGVYFCSQNTHVPPTFGGGTKLEIKR
Reply text: 0.34
